# credit: PubChem BioAssay

- Tested on: Fibrinogen (Alexa647-labelled)
- protocol text: fibrinogen binders on compound microarrays, profiling panel, artefact control for SMM control-protein annotation, biochemical, small-molecule microarray, 635/667 nm fluorescence (AID 1131);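 also: z-score merges 667 nm fluorescence with per-spot signal-to-noise over triplicate slides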
- assay conditions: fibrinogen-A647 binding fluorescence, higher = more signal
measurement label: composite z-score
// no unit, no text: just the number

Hey, Fibrinogen (Alexa647-labelled) data for CN(C)CCCNC(=O)[C@@]1(C)c2ccccc2C(=O)N(Cc2cc(C(F)(F)F)cc(C(F)(F)F)c2)[C@H]1c1ccc(CO)cc1 : composite z-score came out at -2.28

Hey, Fibrinogen (Alexa647-labelled) data for COC(=O)[C@@]1(Cc2ccc(OC)cc2)[C@H]2c3cc(C(=O)N4CCCC4)n(CCc4cc5ccccc5[nH]4)c3C[C@H]2CN1C(=O)c1ccccc1 : composite z-score came out at 0.98

Hey, Fibrinogen (Alexa647-labelled) data for O=C1OC[C@@H](c2ccccc2)N2CC(/C=C/c3ccccc3)=CC12 (some centres not stated) : composite z-score came out at -0.593
